assay: Tmax in male Wistar rat at 10 mg/kg, po measured upto 24 hrs; format: ADME, organism-based; details: in vivo
PROPERTY_LABEL: Tmax (h)
Reply numerically in h, unit not repeated.

So what does the record say about Tmax for CCc1ccc(CCOc2ccc(CC3SC(=O)NC3=O)cc2)nc1 (stereo unspecified) [PIOGLITAZONE] ? 2.69

###

test: Half life in male Wistar rat at 10 mg/kg, po measured upto 24 hrs; type: ADME, organism-based; details: in vivo
PROPERTY_LABEL: half-life (h)
Supply the numeric figure in h, leaving out any unit text.

Recorded half-life for CCc1ccc(CCOc2ccc(CC3SC(=O)NC3=O)cc2)nc1 (stereo unspecified) [PIOGLITAZONE] , please? 4.92

###

test: AUC (0 to infinity) in male Wistar rat at 10 mg/kg, po measured upto 24 hrs; type: ADME, organism-based; conditions: in vivo
PROPERTY_LABEL: AUC(0-inf)

Entry under review: CCc1ccc(CCOc2ccc(CC3SC(=O)NC3=O)cc2)nc1 (stereo unspecified) . Reported AUC(0-inf)? 43600 ng·h/mL

###

experiment: Cmax in male Wistar rat at 10 mg/kg, po measured upto 24 hrs; type: ADME, organism-based; settings: in vivo
PROPERTY_LABEL: Cmax (ng/mL)
Could you give me the number in ng/mL? Just the number is fine.

So what does the record say about Cmax for CCc1ccc(CCOc2ccc(CC3SC(=O)NC3=O)cc2)nc1 (stereo unspecified) [PIOGLITAZONE] ? 3130

###

experiment: AUC (0 to t) in male Wistar rat at 30 mg/kg, po measured upto 24 hrs; format: ADME, organism-based; conditions: in vivo
Quick reference: AUC(0-t) at 24 h of the listed items.
Dear colleague, please return just the value in ng·h/mL, with no unit written.

1) N#C[C@H]1CCCN1C(=O)CN1C(=O)S/C(=C\c2ccc(O)cc2)C1=O: 5980

Shifting focus to the molecule that follows.
So what's the measured AUC(0-t) at 24 h for this one? "N#C[C@H]1CCCN1C(=O)CN1C(=O)S/C(=C\c2ccc(F)cc2)C1=O" 5620
